systemUnderTest: UniProtKB Q9Y2H1
Sequence (Q9Y2H1 whole entry, looked up): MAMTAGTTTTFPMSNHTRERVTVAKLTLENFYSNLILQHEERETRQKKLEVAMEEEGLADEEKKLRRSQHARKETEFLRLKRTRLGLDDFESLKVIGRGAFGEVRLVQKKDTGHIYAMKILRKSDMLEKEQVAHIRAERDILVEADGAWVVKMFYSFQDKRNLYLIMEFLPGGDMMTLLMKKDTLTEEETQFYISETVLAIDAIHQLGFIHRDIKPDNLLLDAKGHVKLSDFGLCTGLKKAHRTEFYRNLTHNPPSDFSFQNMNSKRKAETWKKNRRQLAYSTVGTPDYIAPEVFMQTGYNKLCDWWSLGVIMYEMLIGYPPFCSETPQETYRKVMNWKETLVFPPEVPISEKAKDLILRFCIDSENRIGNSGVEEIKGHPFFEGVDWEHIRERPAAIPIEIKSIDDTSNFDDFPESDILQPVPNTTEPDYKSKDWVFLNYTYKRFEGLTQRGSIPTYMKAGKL
testProtocol: KINOMEscan competition binding
conditionInfo: compound 10.0 µM
readoutType: kinase still bound, per cent of control (%)
Express it in %; write the number only.

See these solved cases before continuing.
structurestring=Cn1cc(C2=C(c3ccc(Cl)cc3Cl)C(=O)NC2=O)c2ccccc21 systemundertest="UniProtKB Q9Y2H1" readouttype="kinase still bound, per cent of control" unitannotation=% recordedresult=100
structurestring=O=C1Nc2cc(Br)ccc2/C1=C1/Nc2ccccc2/C1=N\O systemundertest="UniProtKB Q9Y2H1" readouttype="kinase still bound, per cent of control" unitannotation=% recordedresult=48
structurestring=Cc1cnc(-c2cnc(NCCNc3ccc(C#N)cn3)nc2-c2ccc(Cl)cc2Cl)[nH]1 systemundertest="UniProtKB Q9Y2H1" readouttype="kinase still bound, per cent of control" unitannotation=% recordedresult=100

Shifting focus to the compound that follows.
Report kinase still bound, per cent of control for "COc1ccc(CNC(=O)Nc2ncc([N+](=O)[O-])s2)cc1" please. 100

----------
systemUnderTest: ULK1 (human)
testProtocol: KINOMEscan competition binding
conditionInfo: compound 10.0 µM
readoutType: kinase still bound, per cent of control
Be sure to follow the number with its unit.

Entry "Cn1cc(C2=C(c3ccc(Cl)cc3Cl)C(=O)NC2=O)c2ccccc21" : reported kinase still bound, per cent of control = ? 96%

So what does the record say about kinase still bound, per cent of control for "COc1ccc(CNC(=O)Nc2ncc([N+](=O)[O-])s2)cc1" ? 100%

// lookup kinase still bound, per cent of control for "Cc1cnc(-c2cnc(NCCNc3ccc(C#N)cn3)nc2-c2ccc(Cl)cc2Cl)[nH]1" 94%

Form field: reported kinase still bound, per cent of control of "O=C1Nc2cc(Br)ccc2/C1=C1/Nc2ccccc2/C1=N\O" 7.3%

----------
systemUnderTest: MAP2K1 (human) (UniProt Q02750)
Sequence (Q02750 whole entry, looked up): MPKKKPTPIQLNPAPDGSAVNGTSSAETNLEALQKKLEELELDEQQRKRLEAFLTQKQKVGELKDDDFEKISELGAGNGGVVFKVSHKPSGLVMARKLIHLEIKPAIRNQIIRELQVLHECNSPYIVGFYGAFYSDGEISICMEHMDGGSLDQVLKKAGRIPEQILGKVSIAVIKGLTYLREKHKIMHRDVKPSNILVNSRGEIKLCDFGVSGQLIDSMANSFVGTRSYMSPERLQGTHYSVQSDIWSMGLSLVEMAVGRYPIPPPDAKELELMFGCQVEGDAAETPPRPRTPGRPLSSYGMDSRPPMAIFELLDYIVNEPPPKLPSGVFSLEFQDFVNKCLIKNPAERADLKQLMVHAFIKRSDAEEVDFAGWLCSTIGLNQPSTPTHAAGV
testProtocol: KINOMEscan competition binding
conditionInfo: compound 10.0 µM
readoutType: kinase still bound, per cent of control
Put down the number, then write its unit next to it.

Guide cases for kinase still bound, per cent of control, answers given:
structurestring=Cn1cc(C2=C(c3ccc(Cl)cc3Cl)C(=O)NC2=O)c2ccccc21 recordedresult=100%
structurestring=O=C1Nc2cc(Br)ccc2/C1=C1/Nc2ccccc2/C1=N\O recordedresult=37%

Which measured kinase still bound, per cent of control value corresponds to "Cc1cnc(-c2cnc(NCCNc3ccc(C#N)cn3)nc2-c2ccc(Cl)cc2Cl)[nH]1" ? 100%

// query kinase still bound, per cent of control value for entry "COc1ccc(CNC(=O)Nc2ncc([N+](=O)[O-])s2)cc1" 100%

----------
systemUnderTest: BMPR1B (human)
testProtocol: KINOMEscan competition binding
conditionInfo: compound 10.0 µM
molecules and their reported kinase still bound, per cent of control
State the answer as a number, implicitly in %.

structurestring=COc1ccc(CNC(=O)Nc2ncc([N+](=O)[O-])s2)cc1 readouttype="kinase still bound, per cent of control" recordedresult=89
structurestring=O=C1Nc2cc(Br)ccc2/C1=C1/Nc2ccccc2/C1=N\O readouttype="kinase still bound, per cent of control" recordedresult=50
structurestring=Cc1cnc(-c2cnc(NCCNc3ccc(C#N)cn3)nc2-c2ccc(Cl)cc2Cl)[nH]1 readouttype="kinase still bound, per cent of control" recordedresult=92

Now consider the entry below.
Report kinase still bound, per cent of control for "Cn1cc(C2=C(c3ccc(Cl)cc3Cl)C(=O)NC2=O)c2ccccc21" please. 86

----------
// reported kinase still bound, per cent of control per item
systemUnderTest: UniProt:Q86Z02
Sequence (Q86Z02 whole entry, looked up): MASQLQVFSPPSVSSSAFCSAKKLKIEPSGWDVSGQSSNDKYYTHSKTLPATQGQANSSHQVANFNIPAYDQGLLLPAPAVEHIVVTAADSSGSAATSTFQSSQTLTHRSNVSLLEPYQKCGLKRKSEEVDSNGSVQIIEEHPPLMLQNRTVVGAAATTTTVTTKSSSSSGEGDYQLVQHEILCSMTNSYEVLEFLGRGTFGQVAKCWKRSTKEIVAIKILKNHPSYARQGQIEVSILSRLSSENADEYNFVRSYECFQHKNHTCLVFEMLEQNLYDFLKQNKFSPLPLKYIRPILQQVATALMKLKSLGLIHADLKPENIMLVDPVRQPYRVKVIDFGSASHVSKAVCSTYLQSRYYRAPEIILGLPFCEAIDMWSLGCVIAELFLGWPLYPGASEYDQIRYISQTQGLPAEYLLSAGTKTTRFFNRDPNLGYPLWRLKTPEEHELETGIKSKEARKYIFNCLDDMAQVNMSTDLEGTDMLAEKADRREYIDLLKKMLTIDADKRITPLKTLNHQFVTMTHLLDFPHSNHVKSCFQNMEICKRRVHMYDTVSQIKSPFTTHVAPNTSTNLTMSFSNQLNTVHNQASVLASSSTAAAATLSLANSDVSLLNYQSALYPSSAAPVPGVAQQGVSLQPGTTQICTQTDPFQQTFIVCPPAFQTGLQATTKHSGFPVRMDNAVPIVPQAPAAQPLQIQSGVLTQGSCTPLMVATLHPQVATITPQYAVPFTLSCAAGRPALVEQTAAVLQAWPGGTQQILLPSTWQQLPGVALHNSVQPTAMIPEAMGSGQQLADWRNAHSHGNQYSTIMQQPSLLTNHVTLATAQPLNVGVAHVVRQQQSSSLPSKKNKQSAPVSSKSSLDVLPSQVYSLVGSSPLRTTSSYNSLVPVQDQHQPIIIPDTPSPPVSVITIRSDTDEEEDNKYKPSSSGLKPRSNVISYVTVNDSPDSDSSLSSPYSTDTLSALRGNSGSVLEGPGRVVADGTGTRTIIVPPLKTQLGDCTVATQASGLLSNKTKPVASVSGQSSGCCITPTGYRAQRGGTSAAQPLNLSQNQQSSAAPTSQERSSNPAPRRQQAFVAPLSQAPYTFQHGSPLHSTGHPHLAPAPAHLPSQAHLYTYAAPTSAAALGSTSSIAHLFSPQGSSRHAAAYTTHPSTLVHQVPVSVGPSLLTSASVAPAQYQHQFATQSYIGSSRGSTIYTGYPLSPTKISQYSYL
testProtocol: KINOMEscan competition binding
conditionInfo: compound 10.0 µM
Quick note: give the figure in %, leave out the unit.

structurestring=O=C1Nc2cc(Br)ccc2/C1=C1/Nc2ccccc2/C1=N\O systemundertest=UniProt:Q86Z02 readouttype="kinase still bound, per cent of control" unitannotation=% recordedresult=7.6
structurestring=Cc1cnc(-c2cnc(NCCNc3ccc(C#N)cn3)nc2-c2ccc(Cl)cc2Cl)[nH]1 systemundertest=UniProt:Q86Z02 readouttype="kinase still bound, per cent of control" unitannotation=% recordedresult=87
structurestring=COc1ccc(CNC(=O)Nc2ncc([N+](=O)[O-])s2)cc1 systemundertest=UniProt:Q86Z02 readouttype="kinase still bound, per cent of control" unitannotation=% recordedresult=58

# ---- query molecule ----
Entry "Cn1cc(C2=C(c3ccc(Cl)cc3Cl)C(=O)NC2=O)c2ccccc21" has what kinase still bound, per cent of control? 5

----------
System: FLT3 (human), P36888 [D835H]
testProtocol: KINOMEscan competition binding
conditionInfo: compound 10.0 µM
kinase still bound, per cent of control listing for selected compounds.
All answers are understood in %, so give the number only.

Answered cases to consult:
structurestring=COc1ccc(CNC(=O)Nc2ncc([N+](=O)[O-])s2)cc1 unitannotation=% recordedresult=99
structurestring=Cc1cnc(-c2cnc(NCCNc3ccc(C#N)cn3)nc2-c2ccc(Cl)cc2Cl)[nH]1 unitannotation=% recordedresult=74
structurestring=Cn1cc(C2=C(c3ccc(Cl)cc3Cl)C(=O)NC2=O)c2ccccc21 unitannotation=% recordedresult=32

Turning now to a further compound:
What value of kinase still bound, per cent of control on FLT3 (human), P36888 [D835H] does "O=C1Nc2cc(Br)ccc2/C1=C1/Nc2ccccc2/C1=N\O" have? 1.8

----------
systemUnderTest: AKT2 (human)
testProtocol: KINOMEscan competition binding
conditionInfo: compound 10.0 µM
As shown below, each of these molecules has a reported kinase still bound, per cent of control value.
Numbers only; they are read as %.

structurestring=Cn1cc(C2=C(c3ccc(Cl)cc3Cl)C(=O)NC2=O)c2ccccc21 systemundertest="AKT2 (human)" recordedresult=100
structurestring=O=C1Nc2cc(Br)ccc2/C1=C1/Nc2ccccc2/C1=N\O systemundertest="AKT2 (human)" recordedresult=100
structurestring=Cc1cnc(-c2cnc(NCCNc3ccc(C#N)cn3)nc2-c2ccc(Cl)cc2Cl)[nH]1 systemundertest="AKT2 (human)" recordedresult=100

Now look at this entry.
Look up kinase still bound, per cent of control with AKT2 (human) for this molecule: "COc1ccc(CNC(=O)Nc2ncc([N+](=O)[O-])s2)cc1" 99

----------
Entries annotated with measured kinase still bound, per cent of control
systemUnderTest: AKT1 (human) (UniProt P31749)
Sequence (P31749 whole entry, looked up): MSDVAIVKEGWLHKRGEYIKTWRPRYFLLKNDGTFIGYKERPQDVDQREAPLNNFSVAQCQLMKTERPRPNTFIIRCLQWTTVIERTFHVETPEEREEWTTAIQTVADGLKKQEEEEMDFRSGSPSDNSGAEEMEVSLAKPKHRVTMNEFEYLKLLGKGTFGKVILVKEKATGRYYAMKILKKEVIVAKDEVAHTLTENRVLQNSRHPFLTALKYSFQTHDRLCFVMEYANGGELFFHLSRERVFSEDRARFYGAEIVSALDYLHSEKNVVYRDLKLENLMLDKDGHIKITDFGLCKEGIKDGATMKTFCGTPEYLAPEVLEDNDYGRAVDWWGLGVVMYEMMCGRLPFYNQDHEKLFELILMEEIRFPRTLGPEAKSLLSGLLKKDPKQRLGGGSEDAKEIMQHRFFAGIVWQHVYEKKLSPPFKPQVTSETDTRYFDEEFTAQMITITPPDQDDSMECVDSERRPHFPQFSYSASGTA
testProtocol: KINOMEscan competition binding
conditionInfo: compound 10.0 µM
Number only, in %; omit the unit.

structurestring=COc1ccc(CNC(=O)Nc2ncc([N+](=O)[O-])s2)cc1 unitannotation=% recordedresult=86
structurestring=Cc1cnc(-c2cnc(NCCNc3ccc(C#N)cn3)nc2-c2ccc(Cl)cc2Cl)[nH]1 unitannotation=% recordedresult=100

State the recorded kinase still bound, per cent of control for this entry: "O=C1Nc2cc(Br)ccc2/C1=C1/Nc2ccccc2/C1=N\O" 100

Looking for the measured kinase still bound, per cent of control of "Cn1cc(C2=C(c3ccc(Cl)cc3Cl)C(=O)NC2=O)c2ccccc21" , can you help? 100

----------
systemUnderTest: CDK9 (human) (UniProt P50750)
Sequence (P50750 whole entry, looked up): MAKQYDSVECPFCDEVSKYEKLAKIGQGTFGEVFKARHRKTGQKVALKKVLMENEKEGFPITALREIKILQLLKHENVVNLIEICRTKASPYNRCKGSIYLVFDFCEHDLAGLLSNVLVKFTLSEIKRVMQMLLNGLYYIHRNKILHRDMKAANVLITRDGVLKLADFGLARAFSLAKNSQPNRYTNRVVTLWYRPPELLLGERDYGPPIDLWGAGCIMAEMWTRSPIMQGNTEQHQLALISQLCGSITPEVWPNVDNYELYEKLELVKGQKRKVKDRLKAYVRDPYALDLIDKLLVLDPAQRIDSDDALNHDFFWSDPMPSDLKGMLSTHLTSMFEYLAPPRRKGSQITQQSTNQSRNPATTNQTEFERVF
testProtocol: KINOMEscan competition binding
conditionInfo: compound 10.0 µM
readoutType: kinase still bound, per cent of control (%)
Please respond with the number in % and leave the unit unwritten.

structurestring=COc1ccc(CNC(=O)Nc2ncc([N+](=O)[O-])s2)cc1 systemundertest="CDK9 (human) (UniProt P50750)" readouttype="kinase still bound, per cent of control" recordedresult=89
structurestring=Cc1cnc(-c2cnc(NCCNc3ccc(C#N)cn3)nc2-c2ccc(Cl)cc2Cl)[nH]1 systemundertest="CDK9 (human) (UniProt P50750)" readouttype="kinase still bound, per cent of control" recordedresult=58
structurestring=O=C1Nc2cc(Br)ccc2/C1=C1/Nc2ccccc2/C1=N\O systemundertest="CDK9 (human) (UniProt P50750)" readouttype="kinase still bound, per cent of control" recordedresult=26

Attention now shifts to the item below.
Param readout= kinase still bound, per cent of control; system= CDK9 (human) (UniProt P50750); entry= "Cn1cc(C2=C(c3ccc(Cl)cc3Cl)C(=O)NC2=O)c2ccccc21" ; returns value. 92

----------
Tested on: ABL1 (human), P00519 [H396P]
testProtocol: KINOMEscan competition binding
conditionInfo: compound 10.0 µM
readoutType: kinase still bound, per cent of control (%)
Express the result in % but write the number alone.

structurestring=Cc1cnc(-c2cnc(NCCNc3ccc(C#N)cn3)nc2-c2ccc(Cl)cc2Cl)[nH]1 readouttype="kinase still bound, per cent of control" unitannotation=% recordedresult=100
structurestring=Cn1cc(C2=C(c3ccc(Cl)cc3Cl)C(=O)NC2=O)c2ccccc21 readouttype="kinase still bound, per cent of control" unitannotation=% recordedresult=90
structurestring=O=C1Nc2cc(Br)ccc2/C1=C1/Nc2ccccc2/C1=N\O readouttype="kinase still bound, per cent of control" unitannotation=% recordedresult=4.5

Attention now shifts to the item below.
Could you share which kinase still bound, per cent of control value was measured for "COc1ccc(CNC(=O)Nc2ncc([N+](=O)[O-])s2)cc1" ? 75

----------
Reported kinase still bound, per cent of control is given for each of the following compounds.
systemUnderTest: BMX (human) (UniProt P51813)
Sequence (P51813 whole entry, looked up): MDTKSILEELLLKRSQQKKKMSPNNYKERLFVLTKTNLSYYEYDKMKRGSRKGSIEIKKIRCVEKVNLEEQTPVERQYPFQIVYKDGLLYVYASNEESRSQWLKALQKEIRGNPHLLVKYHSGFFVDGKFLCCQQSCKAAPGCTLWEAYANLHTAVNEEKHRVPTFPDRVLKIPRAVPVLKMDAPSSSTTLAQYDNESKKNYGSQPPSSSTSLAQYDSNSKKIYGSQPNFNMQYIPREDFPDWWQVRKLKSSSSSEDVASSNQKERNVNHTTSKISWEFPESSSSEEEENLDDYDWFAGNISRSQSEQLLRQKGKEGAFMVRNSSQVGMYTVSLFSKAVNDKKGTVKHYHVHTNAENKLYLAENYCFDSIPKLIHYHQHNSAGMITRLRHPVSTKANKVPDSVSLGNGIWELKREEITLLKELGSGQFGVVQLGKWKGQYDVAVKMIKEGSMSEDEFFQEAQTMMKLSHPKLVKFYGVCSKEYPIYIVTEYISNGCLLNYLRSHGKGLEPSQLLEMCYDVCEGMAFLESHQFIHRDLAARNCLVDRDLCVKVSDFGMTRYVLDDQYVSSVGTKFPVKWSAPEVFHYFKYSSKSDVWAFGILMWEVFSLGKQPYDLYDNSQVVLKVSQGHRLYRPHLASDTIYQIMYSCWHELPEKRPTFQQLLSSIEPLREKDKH
testProtocol: KINOMEscan competition binding
conditionInfo: compound 10.0 µM
Provide only the numeric value, understood in %.

structurestring=Cn1cc(C2=C(c3ccc(Cl)cc3Cl)C(=O)NC2=O)c2ccccc21 recordedresult=78
structurestring=O=C1Nc2cc(Br)ccc2/C1=C1/Nc2ccccc2/C1=N\O recordedresult=42
structurestring=COc1ccc(CNC(=O)Nc2ncc([N+](=O)[O-])s2)cc1 recordedresult=100

Can you look up the measured kinase still bound, per cent of control of "Cc1cnc(-c2cnc(NCCNc3ccc(C#N)cn3)nc2-c2ccc(Cl)cc2Cl)[nH]1" for me? 100
